Reported pKi values, DOR (Homo sapiens, UniProt P41143).
pKi: −log10 of the molar value.
observedProperty: pKi

[[record]]
molecule = "O=C(Nc1ccc([N+](=O)[O-])c(C(F)(F)F)c1)[C@@H]1CC=C[C@@H]2CCN(c3ccccc3)C(=O)[C@@H]21 (racemic) [compound 11926]"
censorsymbol = "="
experimentalresult = 7.46

[[record]]
molecule = "CCOC(=O)C1CCCCN1C(=O)[C@@H]1CC=C[C@@H]2CCN(Cc3ccccc3)C(=O)[C@@H]21 (mixture of isomers) [compound 12127]"
censorsymbol = "<"
experimentalresult = 5.00

[[record]]
molecule = "O=C(NC1CCCCC1)[C@@H]1CC=C[C@@H]2CCCN(C3CCCCC3)C(=O)[C@@H]21 (racemic) [compound 14424]"
censorsymbol = "="
experimentalresult = 5.77

[[record]]
molecule = "CC(C)N(C(=O)[C@@H]1CC=C[C@@H]2CCN(CC3CCCCC3)C(=O)[C@@H]21)C1CCCCC1 (racemic) [compound 12134]"
censorsymbol = "="
experimentalresult = 5.79

[[record]]
molecule = "O=C(NCc1cccc(Br)c1)[C@@H]1CC=C[C@@H]2CCN(c3ccccc3)C(=O)[C@@H]21 (racemic) [compound 11949]"
censorsymbol = "="
experimentalresult = 6.52

[[record]]
molecule = "C=CCNC(=O)[C@@H]1CC=C[C@@H]2CCN(CC3CCCCC3)C(=O)[C@@H]21 (racemic) [compound 12110]"
censorsymbol = "="
experimentalresult = 5.85


###

target: KOR (Homo sapiens, UniProt P41145); test: Opioid secondary binding, KOR (Tables 4, 5, 8, 9); settings: Opioid secondary binding activity for Formula 10 analogs; read-out: KOR, Ki
Sequence (P41145 whole entry): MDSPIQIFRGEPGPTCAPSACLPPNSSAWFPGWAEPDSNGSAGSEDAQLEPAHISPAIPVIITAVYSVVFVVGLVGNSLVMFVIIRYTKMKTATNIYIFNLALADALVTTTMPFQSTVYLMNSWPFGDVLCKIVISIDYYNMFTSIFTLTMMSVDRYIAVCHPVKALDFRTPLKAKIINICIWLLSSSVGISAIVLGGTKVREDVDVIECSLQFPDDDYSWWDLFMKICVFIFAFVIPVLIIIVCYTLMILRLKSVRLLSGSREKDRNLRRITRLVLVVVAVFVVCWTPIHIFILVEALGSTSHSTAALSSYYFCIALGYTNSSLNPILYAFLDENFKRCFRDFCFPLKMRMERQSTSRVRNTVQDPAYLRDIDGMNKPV
pKi: −log10 of the molar value.
Classification field: enter label 1 for pKi values not below 6, label 0 for values below it.

[[record]]
compound = "O=C(Nc1ccccc1)[C@@H]1CC=C[C@@H]2CCN(Cc3ccccc3)C(=O)[C@@H]21 [compound 11793]"
qualitativelabel = "label 0"

[[record]]
compound = "O=C([C@@H]1CC=C[C@@H]2CCN(C3CCCCC3)C(=O)[C@@H]21)N1CCOCC1 (racemic) [compound 8910]"
qualitativelabel = "label 0"

[[record]]
compound = "O=C(Nc1ccc(Br)c(C(F)(F)F)c1)[C@H]1CC=C[C@H]2CCN(Cc3ccccc3)C(=O)[C@@H]12 [11869*]"
qualitativelabel = "label 1"

[[record]]
compound = "O=C(Nc1ccc(F)c(F)c1)[C@@H]1CC=C[C@@H]2CCN(CC3CCCCC3)C(=O)[C@@H]21 (racemic) [compound 11889]"
qualitativelabel = "label 1"

[[record]]
compound = "COc1ccc(NC(=O)[C@@H]2CC=C[C@@H]3CCN(Cc4ccc(Cl)c(Cl)c4)C(=O)[C@@H]32)cc1 (racemic) [compound 8947]"
qualitativelabel = "label 0"

[[record]]
compound = "CC(C)N1CCC2C=CCC(C(=O)Nc3ccc(F)c(F)c3)C2C1=O (racemic) [compound 10847]"
qualitativelabel = "label 0"

[[record]]
compound = "O=C1[C@H]2[C@H](C=CC[C@H]2C(=O)N2CCN(c3ccccc3)CC2)CCN1Cc1ccccc1 (racemic) [compound 8912]"
qualitativelabel = "label 0"

[[record]]
compound = "Cc1cc(NC(=O)[C@@H]2CC=C[C@@H]3CCN(Cc4ccccc4)C(=O)[C@@H]32)ccc1Cl (racemic) [compound 11872]"
qualitativelabel = "label 1"

[[record]]
compound = "O=C(Nc1ccc(Cl)cc1Cl)[C@@H]1CC=C[C@@H]2CCN(Cc3ccc(Cl)c(Cl)c3)C(=O)[C@@H]21 (racemic) [compound 8951]"
qualitativelabel = "label 0"

[[record]]
compound = "O=C(NC1CCCCC1)[C@@H]1CC=C[C@@H]2CCN(C3CCCCC3)C(=O)[C@@H]21 (racemic) [compound 8922]"
qualitativelabel = "label 1"


###

target: DOR (Homo sapiens, UniProt P41143)
Sequence (P41143 whole entry): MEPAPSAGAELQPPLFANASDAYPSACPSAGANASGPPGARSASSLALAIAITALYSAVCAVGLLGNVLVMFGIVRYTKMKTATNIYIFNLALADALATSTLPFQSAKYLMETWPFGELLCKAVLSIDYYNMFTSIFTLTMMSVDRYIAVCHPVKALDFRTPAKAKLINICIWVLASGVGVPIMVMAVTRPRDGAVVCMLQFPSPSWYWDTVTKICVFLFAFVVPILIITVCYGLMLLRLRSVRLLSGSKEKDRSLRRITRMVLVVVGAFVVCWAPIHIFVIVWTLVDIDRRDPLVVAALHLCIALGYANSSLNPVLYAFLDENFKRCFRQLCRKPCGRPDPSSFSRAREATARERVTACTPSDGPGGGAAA
pKi: −log10 of the molar value.
observedProperty: pKi

[[record]]
compound = "O=C(Nc1cc(C(F)(F)F)ccc1Cl)C1CC=CC2CCN(C3CCCCC3)C(=O)C21 (racemic) [compound 11837]"
experimentalresult = 5.10

[[record]]
compound = "O=C(NCc1ccccc1)[C@@H]1CC=C[C@@H]2CCN(Cc3ccccc3)C(=O)[C@@H]21 (racemic) [compound 11930]"
experimentalresult = 6.13

[[record]]
compound = "CC(c1ccccc1)N1CCC2C=CCC(C(=O)Nc3ccccc3)C2C1=O (mixture of isomers) [compound 12164]"
experimentalresult = 5.86

[[record]]
compound = "O=C(Nc1ccc(Br)c(C(F)(F)F)c1)[C@@H]1CC=C[C@@H]2CN(C3CCCCC3)C(=O)[C@@H]21 (racemic) [compound 14438]"
experimentalresult = 5.72

[[record]]
compound = "COc1ccc(-c2cccc(CN3CC[C@H]4C=CC[C@@H](C(=O)Nc5ccc(Cl)c(C(F)(F)F)c5)[C@H]4C3=O)c2)cc1 (racemic) [compound 12161]"
experimentalresult = 5.67

[[record]]
compound = "O=C(Nc1ccc([N+](=O)[O-])cc1)[C@@H]1CC=C[C@@H]2CCN(c3ccccc3)C(=O)[C@@H]21 (racemic) [compound 11947]"
experimentalresult = 6.85


###

molecular target: KOR (Homo sapiens); test: Opioid secondary binding, KOR (Tables 4, 5, 8, 9); details: Opioid secondary binding activity for Formula 10 analogs; read-out: KOR, Ki
pKi: −log10 of the molar value.
observedProperty: pKi

[[record]]
compound = "O=C(Nc1cccc(Cl)c1)[C@@H]1CC=C[C@@H]2CCN(CC3CCCCC3)C(=O)[C@@H]21 (racemic)"
experimentalresult = 7.17

[[record]]
compound = "O=C(Nc1ccccc1)[C@@H]1CC=C[C@@H]2CCN(Cc3ccc(Cl)c(Cl)c3)C(=O)[C@@H]21 (racemic)"
experimentalresult = 6.59

[[record]]
compound = "Cc1cc(NC(=O)[C@@H]2CC=C[C@@H]3CCN(C4CCCCC4)C(=O)[C@@H]32)ccc1Cl (racemic)"
experimentalresult = 6.15

[[record]]
compound = "O=C(OCc1ccccc1)C(Cc1ccccc1)NC(=O)C1CC=CC2CCN(Cc3ccccc3)C(=O)C21 (mixture of isomers)"
experimentalresult = 5.89

[[record]]
compound = "O=C(NCc1cccc(Br)c1)[C@@H]1CC=C[C@@H]2CCN(Cc3ccccc3)C(=O)[C@@H]21 (racemic)"
experimentalresult = 5.48

[[record]]
compound = "O=C(NC1CCCCC1)[C@@H]1CC=C[C@@H]2CCN(Cc3ccccc3)C(=O)[C@@H]21 (racemic)"
experimentalresult = 6.53


###

molecular target: MOR (Homo sapiens); assay: Opioid secondary binding, MOR (Tables 4, 5, 8); conditions: Opioid secondary binding activity for Formula 10 analogs; read-out: MOR, Ki
Sequence (P35372 whole entry): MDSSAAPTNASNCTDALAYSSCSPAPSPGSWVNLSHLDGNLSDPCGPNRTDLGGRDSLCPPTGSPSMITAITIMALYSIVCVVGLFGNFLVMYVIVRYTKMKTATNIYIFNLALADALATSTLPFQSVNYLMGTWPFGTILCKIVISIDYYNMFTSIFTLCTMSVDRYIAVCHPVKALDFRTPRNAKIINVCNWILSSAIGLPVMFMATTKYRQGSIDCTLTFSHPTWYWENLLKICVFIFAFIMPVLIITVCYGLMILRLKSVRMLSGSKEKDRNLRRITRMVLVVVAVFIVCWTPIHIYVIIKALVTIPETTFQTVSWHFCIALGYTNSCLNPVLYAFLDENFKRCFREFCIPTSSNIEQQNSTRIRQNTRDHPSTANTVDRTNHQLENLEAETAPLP
observedProperty: Ki

[[record]]
molecule = "CCCCN1CC[C@H]2C=CC[C@@H](C(=O)Nc3ccc(Cl)c(C(F)(F)F)c3)[C@H]2C1=O (racemic)"
observedproperty = "Ki"
experimentalresult = "2220 nM"

[[record]]
molecule = "COc1ccc(CN2CC[C@H]3C=CC[C@@H](C(=O)Nc4ccccc4)[C@H]3C2=O)cc1OC (racemic)"
observedproperty = "Ki"
experimentalresult = "3520 nM"

[[record]]
molecule = "O=C(NCc1ccc(Cl)c(C(F)(F)F)c1)[C@@H]1CC=C[C@@H]2CCN(CCc3ccccc3)C(=O)[C@@H]21 (racemic)"
observedproperty = "Ki"
experimentalresult = "1240 nM"

[[record]]
molecule = "COc1ccc(CN2CC[C@H]3C=CC[C@@H](C(=O)Nc4ccc(Cl)c(C(F)(F)F)c4)[C@H]3C2=O)cc1OC (racemic)"
observedproperty = "Ki"
experimentalresult = "2540 nM"

[[record]]
molecule = "COc1ccc(CNC(=O)[C@@H]2CC=C[C@@H]3CCN(Cc4ccc(Cl)c(Cl)c4)C(=O)[C@@H]32)cc1 (racemic)"
observedproperty = "Ki"
experimentalresult = "7400 nM"

[[record]]
molecule = "Cc1cc(NC(=O)[C@@H]2CC=C[C@@H]3CCN(Cc4ccccc4)C(=O)[C@@H]32)ccc1Cl (racemic)"
observedproperty = "Ki"
experimentalresult = "2180 nM"


###

The following molecules are listed with their measured log10(Ki) values.
biological target: KOR (Homo sapiens); assay: Opioid secondary binding, KOR (Tables 4, 5, 8, 9)
observedProperty: log10(Ki) (log10 of the value in nM)

[[record]]
molecule = "O=C(NC1CCCCC1)[C@@H]1CC=C[C@@H]2CCN(Cc3ccccc3)C(=O)[C@@H]21"
targetentity = "KOR (Homo sapiens)"
observedproperty = "log10(Ki)"
experimentalresult = 3.11

[[record]]
molecule = "O=C(Nc1ccc(Cl)c(C(F)(F)F)c1)[C@@H]1CC=C[C@H]2CCN(Cc3ccccc3)C(=O)[C@H]21"
targetentity = "KOR (Homo sapiens)"
observedproperty = "log10(Ki)"
experimentalresult = 2.20

[[record]]
molecule = "O=C(Nc1ccc(Cl)c(C(F)(F)F)c1)[C@@H]1CC=C[C@@H]2CCN(Cc3ccccc3)C(=O)[C@@H]21 (racemic) [compound 8620]"
targetentity = "KOR (Homo sapiens)"
observedproperty = "log10(Ki)"
experimentalresult = 0.72

[[record]]
molecule = "O=C(Nc1ccc(Cl)c(C(F)(F)F)c1)[C@H]1CC=C[C@H]2CCN(Cc3ccccc3)C(=O)[C@@H]12"
targetentity = "KOR (Homo sapiens)"
observedproperty = "log10(Ki)"
experimentalresult = 0.51

[[record]]
molecule = "O=C(Nc1ccc(Cl)c(C(F)(F)F)c1)[C@@H]1CC=C[C@@H]2CCN(Cc3ccccc3)C(=O)[C@@H]21 [compound 11789]"
targetentity = "KOR (Homo sapiens)"
observedproperty = "log10(Ki)"
experimentalresult = 2.12


These measurements were taken from patent US8735391B2.
